# TARGET OR TEST SYSTEM: USP46 (UniProt P62068)
# Sequence (P62068 whole entry, the tested form may be a part): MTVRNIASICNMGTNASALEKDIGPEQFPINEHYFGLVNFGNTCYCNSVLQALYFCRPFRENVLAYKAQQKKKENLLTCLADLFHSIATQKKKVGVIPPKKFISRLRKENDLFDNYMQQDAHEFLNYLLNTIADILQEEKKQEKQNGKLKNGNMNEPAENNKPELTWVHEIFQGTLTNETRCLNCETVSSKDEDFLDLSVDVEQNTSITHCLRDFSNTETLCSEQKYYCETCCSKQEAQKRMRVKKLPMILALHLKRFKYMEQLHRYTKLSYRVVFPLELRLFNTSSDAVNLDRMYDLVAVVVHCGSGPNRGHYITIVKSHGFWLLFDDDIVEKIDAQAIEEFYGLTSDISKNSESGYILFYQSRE
# PROCEDURE TEXT: log2 ratio of Biotin-Ahx-Ub-VS probe labelling (fragment/DMSO); higher = less target engagement (more negative = stronger competition), active = hit call of the paper (q ≤ 0.05, log2 ratio ≤ -1)
# CONDITIONS: compound concentration: 200 uM; treatment time: 3 h
log2 ratio of Biotin-Ahx-Ub-VS probe labelling overview
EXPERIMENTAL ENDPOINT: log2 ratio of Biotin-Ahx-Ub-VS probe labelling

[
  {
    "COMPOUND": "O=C(CCl)N1CCCC2CCCCC21 (configuration not stated)",
    "ASSAY VALUE": -0.132
  },
  {
    "COMPOUND": "Cc1ccc(C(=O)NCCNC(=O)CCl)cc1",
    "ASSAY VALUE": 0.0112
  },
  {
    "COMPOUND": "Cn1cc(CN(Cc2ccc(Cl)cc2)C(=O)CCl)cn1",
    "ASSAY VALUE": -0.635
  },
  {
    "COMPOUND": "Cc1cccn2cc(CCNC(=O)CCl)nc12.Cl",
    "ASSAY VALUE": -0.16
  },
  {
    "COMPOUND": "Cl.Cn1nccc1C(NC(=O)CCl)c1ccccc1 (configuration not stated)",
    "ASSAY VALUE": 0.114
  },
  {
    "COMPOUND": "O=C(CCl)NCc1ccc(Cl)cc1",
    "ASSAY VALUE": -0.0156
  },
  {
    "COMPOUND": "CC(O)CC1CCN(C(=O)CCl)CC1 (configuration not stated)",
    "ASSAY VALUE": -0.263
  }
]

The reported measurements were obtained from the supplement of paper PMC11732987.
